- Subject Of Test: p70S6K1 (Homo sapiens, UniProt P23443)
- Sequence (P23443 24-525): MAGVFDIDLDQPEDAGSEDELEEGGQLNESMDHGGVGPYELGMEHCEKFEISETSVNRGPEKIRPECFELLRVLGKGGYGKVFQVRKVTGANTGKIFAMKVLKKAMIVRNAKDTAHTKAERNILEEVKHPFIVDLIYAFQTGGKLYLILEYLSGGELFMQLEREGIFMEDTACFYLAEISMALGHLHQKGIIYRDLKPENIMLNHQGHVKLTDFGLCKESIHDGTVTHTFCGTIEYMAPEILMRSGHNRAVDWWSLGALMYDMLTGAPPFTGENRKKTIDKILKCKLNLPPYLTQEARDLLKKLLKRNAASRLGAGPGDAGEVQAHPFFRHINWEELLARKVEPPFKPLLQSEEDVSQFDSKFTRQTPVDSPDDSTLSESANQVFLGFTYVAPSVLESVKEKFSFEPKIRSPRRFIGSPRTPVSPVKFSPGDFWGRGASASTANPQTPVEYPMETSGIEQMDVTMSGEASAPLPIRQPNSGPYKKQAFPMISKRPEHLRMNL
- Assay Overview: Z′-LYTE biochemical kinase inhibition assay (SelectScreen, Thermo Fisher)
- Test Settings: 10 µM compound concentration, high-throughput single-concentration screen
Measurement Type: inhibition at 10 µM (%)

Solved cases (2 shown):
Nc1cc(NC(=O)Cc2ccc(C(F)(F)F)cc2)cc2c1C(=O)NC2=O [Compound 5c] : 80
Nc1cc(N)c2c(c1)C(=O)NC2=O [Compound 4, 4,6-diaminoisoindoline-1,3-dione] : 70

a. Nc1cc(NC(=O)Cc2ccc(Br)cc2)cc2c1C(=O)NC2=O [Compound 5f]
b. Nc1cc(NC(=O)C23CC4CC(CC(C4)C2)C3)cc2c1C(=O)NC2=O [Compound 5e]
Select one. Lower inhibition at 10 µM: a or b Output the label that corresponds to your choice. b

This collection of values is drawn from paper PMC11694070.
